system: HMLE_sh_eGFP viability, CellTiter-Glo luminescence, 72 h; experiment: cytotoxicity in HMLE control line with eGFP shRNA, dose response, counter-screen for HMLE_sh_ECad selective toxicity project, cell-based, HMLE_sh_eGFP, luminescence (AID 463074);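 also: counterscreen control line to flag general toxicity for the HMLE_sh_ECad screen; potency for loss of viability as luminescence drops below DMSO wells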
Field: AC50. Provide a value for each of the compounds that follow.

Worked cases, answers included:
>>> result("O=C(Nc1cc(S(=O)(=O)Nc2ccc(Cl)cc2)ccc1N1CCCCC1)c1ccc(F)cc1Cl")
"5.37 µM"
>>> result("O=C(Nc1cccc(Cl)c1)Nc1cc(S(=O)(=O)N2CCCCC2)ccc1Cl")
"2.82 µM"
>>> result("CCC(CO)Oc1cc(NCc2ccc(Cl)cc2Cl)c2ncn(C(C)C)c2c1 (stereo not given)")
"7.64 µM"

Hey, quick one: what's AC50 for each of these?
1. Cc1cccc(-c2oc3ccccc3c2C#CCCO)c1
2. CCOC(=O)C1=C(CSc2nc3ccccc3s2)NC(=O)NC1c1ccc(OC)cc1 (stereo not given)
3. COC(=O)C1=C(C)N(Cc2ccccc2)C(=NCc2cccc(Cl)c2)N[C@H]1c1cccc(F)c1
4. CCN(CC)S(=O)(=O)c1ccc2c(c1)C(=NO)c1cc(S(=O)(=O)N(CC)CC)ccc1-2
5. CC(C)Cn1c(O)c(/C=C2\C=NN=C2c2ccccc2)sc1=S
6. O=C1[C@H]2CCCC[C@H]2C(=O)N1CCCCN1CCN(c2nsc3ccccc23)CC1
7. O=C(CN(c1cccc(C(F)(F)F)c1)S(=O)(=O)c1ccc(Cl)c([N+](=O)[O-])c1)NCc1ccc(F)cc1

["10.1 µM", "10.8 µM", "3.62 µM", "0.756 µM", "3.54 µM", "4.51 µM", "3.26 µM"]

###

Answer each item with its documented AC50.
system: HMLE_sh_eGFP viability, CellTiter-Glo luminescence, 72 h; experiment: cytotoxicity in HMLE control line with eGFP shRNA, dose response, counter-screen for HMLE_sh_ECad selective toxicity project, cell-based, HMLE_sh_eGFP, luminescence (AID 463074)

>>> result("COc1ccc(/C=C2\\C(=O)c3ccccc3OC2c2ccccc2)cc1 (stereo not given)")
"1.38 µM"
>>> result("Cc1ccc(Nc2nc(N)c([N+](=O)[O-])c(NCc3ccco3)n2)cc1C")
"7.19 µM"
>>> result("COc1ccc(-c2cc(C3CCN(c4ccc(C(C)=O)cc4[N+](=O)[O-])CC3)[nH]n2)cc1")
"8.83 µM"
>>> result("COc1ccc(C[C@H]2CN3C(=NC[C@@H]3Cc3ccccc3)N2CCNC(=O)CCC2CCCCC2)cc1")
"7.04 µM"
>>> result("COc1cc(CN2CCN(c3cccc(Cl)c3)CC2)cc(OC)c1OC")
"2.58 µM"

Provide each entry's AC50 from the list below.
1. Cc1cc2nnc(SCC(=O)NCc3ccco3)n2c2ccccc12
2. COc1cc(/C=C/C(=O)c2ccc(NS(=O)(=O)c3ccc(C)cc3)cc2)cc(OC)c1O
3. CCN(CC)S(=O)(=O)c1cccc(NC(=O)Nc2cccc(C(F)(F)F)c2)c1
4. COc1cccc(-c2sc3ccccc3c2-c2ccc(OCCN3CCOCC3)cc2)c1
5. Cc1ccc2nc(NNC(=O)c3ccc(S(=O)(=O)N4CCc5ccccc5C4)cc3)sc2c1

1. 4.5 µM
2. 4.11 µM
3. 3.56 µM
4. 4.3 µM
5. 3.91 µM

###

tested on: HMLE_sh_eGFP viability, CellTiter-Glo luminescence, 72 h; test: cytotoxicity in HMLE control line with eGFP shRNA, dose response, counter-screen for HMLE_sh_ECad selective toxicity project, cell-based, HMLE_sh_eGFP, luminescence (AID 463074);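 also: counterscreen control line to flag general toxicity for the HMLE_sh_ECad screen; potency for loss of viability as luminescence drops below DMSO wells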;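 active means AC50 no more than tenfold above the top dose tested, or full inhibition at every dose with a flat fit (cut at about 19 µM in these data); inconclusive means flat curve fit with inhibition between 30% and 70%, or poor fit; inactive means AC50 more than tenfold above the top dose tested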
Give one outcome, nothing more. List: label 1 (active), label 0 (inactive)

The examples below pair each entry with its known result.
>>> qualitative_label("c1ccc(CNc2nc(N3CCN(Cc4ccccc4)CC3)nc3ccccc23)cc1")
"label 1"
>>> qualitative_label("COc1ccc(C(=O)/C=C2/C(=O)Nc3ccccc32)cc1")
"label 1"
>>> qualitative_label("COc1ccc(C2NCCc3c2[nH]c2ccccc32)cc1COc1ccc(F)cc1 (stereo not drawn)")
"label 1"
>>> qualitative_label("COc1ccc2sc(-c3ccc(N(C)C)cc3)c(C#Cc3cncn3C)c2c1")
"label 1"
>>> qualitative_label("Cc1cc(C)c(OCCCCN2CCNCC2)c(C)c1")
"label 1"

Could you kindly confirm the outcome this assay logged for `Cn1c(=O)n(Cc2ccc(F)cc2)c(=O)c2c1nc1n2CCCN1C1CCCCC1` ? label 1

What did the test return for `O=C(Nc1ccccc1)Nc1cc(Cl)cc(Cl)c1` ? label 1

Hi, sorry to bother you, what did the test record for `C=C(C)Cn1c(SCC(=O)N/N=C/c2c(O)ccc3ccccc23)nc2ccccc2c1=O` ? label 1

###

I'd be grateful if you could share measured AC50 for these entries.
system: HMLE_sh_eGFP viability, CellTiter-Glo luminescence, 72 h; test: cytotoxicity in HMLE control line with eGFP shRNA, dose response, counter-screen for HMLE_sh_ECad selective toxicity project, cell-based, HMLE_sh_eGFP, luminescence (AID 463074);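 also: counterscreen control line to flag general toxicity for the HMLE_sh_ECad screen; potency for loss of viability as luminescence drops below DMSO wells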
Active and inactive are the calls of the source.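 Rule for the calls: active = AC50 no more than tenfold above the top dose tested, or full inhibition at every dose with a flat fit (cut at about 19 µM in these data); inconclusive = flat curve fit with inhibition between 30% and 70%, or poor fit; inactive = AC50 more than tenfold above the top dose tested.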

Reference set, count: 8
>>> result("Cc1ccc(C(=O)NC(=C(Cl)Cl)S(=O)(=O)c2ccccc2)cc1")
"3.22 µM"
>>> result("COc1cc(/C=N/Nc2nc(Nc3ccccc3)nc(-n3nc(C)cc3C)n2)cc(OC)c1OC")
"3.7 µM"
>>> result("O=C(NCCN1CCOCC1)NC1(C(F)(F)F)Oc2ccc(Cl)cc2O1 (stereo not given)")
"14 µM"
>>> result("COc1ccccc1C(CCNCc1ccc(N(C)C)cc1)c1ccc(OC(C)C)cc1 (stereo not given)")
"3.58 µM"
>>> result("Cc1ccc(S(=O)(=O)Nc2ccccc2-c2ccccc2NS(=O)(=O)c2ccc(C)cc2)cc1")
"6.98 µM"
>>> result("O=C(/C(=C/O)N=Nc1ccc(Cl)cc1)c1ccncc1")
"6.53 µM"
>>> result("O=S(=O)(NCc1ccncc1)c1ccc(S(=O)(=O)NCC2CCCO2)cc1 (stereo not given)")
"> 19.5 µM (inactive)"
>>> result("ClC1=C(Cl)C2(Cl)C3C(Cl)C=CC3C1(Cl)C2(Cl)Cl (stereo not given)")
"6.29 µM"

Look at each compound and report its AC50.
1. O=C(Nc1nc(-c2cccs2)cs1)c1ccc([N+](=O)[O-])o1
2. Cn1c(O)c(/C=N/Nc2ccccc2)c(=O)n(C)c1=O

1. 3.18 µM
2. 4.08 µM

###

Assign AC50 to each entry below.
system: HMLE_sh_eGFP viability, CellTiter-Glo luminescence, 72 h; test: cytotoxicity in HMLE control line with eGFP shRNA, dose response, counter-screen for HMLE_sh_ECad selective toxicity project, cell-based, HMLE_sh_eGFP, luminescence (AID 463074);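 also: counterscreen control line to flag general toxicity for the HMLE_sh_ECad screen; potency for loss of viability as luminescence drops below DMSO wells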

Please review the entries below; each comes with its answer.
>>> result("Cc1ccc(NS(=O)(=O)c2sc3ccc(Cl)cc3c2C)cc1")
"3.78 µM"
>>> result("CC[C@@H]1Cc2cc(O)ccc2C2=C1c1ccc(O)cc1C[C@H]2CC")
"4.15 µM"
>>> result("O=C(COc1ccccc1-c1ccccc1)N/N=C/c1ccc2ccccc2c1")
"3.67 µM"
>>> result("Cn1nc(-c2ccc(Cl)cc2)c2cc(C(=O)NCCCN3CCOCC3)sc21")
"5.94 µM"
>>> result("O=[N+]([O-])c1cc(S(=O)(=O)N2CCCCCC2)ccc1F")
"3.66 µM"
>>> result("CC1(C)C[C@H](O)[C@]2(CO)[C@H](O)C[C@]3(C)C(=CCC4[C@@]5(C)CC[C@H](O)C(C)(C)C5CC[C@]43C)[C@@H]2C1 (stereo not given in full)")
"3.63 µM"

Provide AC50 values for the following items, in order.
1. CCc1ccc(-c2cc(C(=O)N3N=C(C(F)F)CC3(O)C(F)F)c3ccccc3n2)cc1 (stereo not given)
2. Cc1ccc([N+](=O)[O-])cc1-c1ccc(/C=C(\C#N)c2[nH]nc(N)c2C#N)o1
3. Cc1cc([N+](=O)[O-])ccc1-c1ccc(C2Nc3ccccc3C(=O)N2O)o1 (stereo not given)
4. CCN1CCN(CCNC(=O)c2ccc3c(c2)N(Cc2ccc(F)cc2)C(=O)/C(=C/c2ccccc2)S3)CC1
5. CC12CCC3C(CC=C4CC(O)CCC43C)C1C/C(=C\c1ccccc1F)C2=O (stereo not given)
6. Cc1ccc2nc(-c3ccccn3)c(Nc3ccccc3C)n2c1
7. O=C(O)CCn1cc(/C=C/C(=O)c2ccc(Cl)cc2)c(-c2ccc(Br)cc2)n1
8. CCOC(=O)c1[nH]c(C)c(C(=O)OCc2ccccc2F)c1C

1. 6.4 µM
2. 4.84 µM
3. 6.45 µM
4. 3.71 µM
5. 4.04 µM
6. 5.04 µM
7. 7.09 µM
8. 1.03 µM

Each of the following entries comes with a recorded value; kindly state AC50 for each.
1. NC(=O)CC(NC(=O)Cc1ccc(Br)cc1)c1ccc(NC2CCCCCC2)c([N+](=O)[O-])c1 (stereo not given)
2. CC(C)c1ccc(-c2cc(C(=O)N3N=C(C(F)F)CC3(O)C(F)F)c3ccccc3n2)cc1 (stereo not given)
3. Cc1nn(Cc2c(Cl)cccc2Cl)c(C)c1NC(=O)c1cn(-c2ccccc2)nc1-c1ccccc1
4. CC1S/C(=N/N=C/c2cccc([N+](=O)[O-])c2)NC1=O (stereo not given)
5. O=C(Nc1ccc2c(c1)OCO2)c1cc(-c2ccc(O)cc2)on1
6. CCN(CC)C1CCN(C(=O)c2cc(COc3ccc(F)cc3Cl)on2)C1 (stereo not given)

["4.88 µM", "6.3 µM", "1.19 µM", "3.48 µM", "1.33 µM", "15.4 µM"]

All figures here come from PubChem BioAssay AID463074.
